Format: in vitro ADME
TEST CONDITIONS: human plasma, 37° C., 10 μM start, prodrug remaining, 60 min
# if measured [ ] (μM) t60 min. Prodrug (Human) < 7 µM: yes (1)  # else: no (0)

Confirm or reject: [ ] (μM) t60 min. Prodrug (Human) of `COc1ccc(-n2c(C(=O)N(C)C)c(OC(=O)C(C)C)c(OC(=O)C(C)C)c2C(=O)N(C)C)cc1` lies strictly below 7 µM
no (0)

Confirm or reject: [ ] (μM) t60 min. Prodrug (Human) of `CCOC(=O)c1c(OCOP(=O)(O)O)c(O)c(C(=O)N(C)C)n1-c1ccc(OC)cc1` lies strictly below 7 µM
yes (1)

Confirm or reject: [ ] (μM) t60 min. Prodrug (Human) of `CCOC(=O)c1c(OC(=O)C(C)(C)COCCOCCOP(=O)(O)O)c(OC(=O)C(C)(C)COCCOCCOP(=O)(O)O)c(C(=O)N(C)C)n1-c1ccc(OC)cc1` lies strictly below 7 µM
yes (1)

Confirm or reject: [ ] (μM) t60 min. Prodrug (Human) of `CCOC(=O)c1c(OC(=O)C(C)C)c(OC(=O)C(C)C)c(C(=O)N(C)C)n1-c1ccc(OCCOCCOCCOC)cc1` lies strictly below 7 µM
yes (1)

Confirm or reject: [ ] (μM) t60 min. Prodrug (Human) of `CCOC(=O)c1c(OC(=O)C(C)(C)COCCOCCOC)c(OC(=O)C(C)(C)COCCOCCOC)c(C(=O)N(C)C)n1-c1ccc(OC)cc1` lies strictly below 7 µM
yes (1)

Confirm or reject: [ ] (μM) t60 min. Prodrug (Human) of `CCOC(=O)c1c(O)c(OP(=O)(O)O)c(C(=O)N(C)C)n1-c1ccc(OC)cc1` lies strictly below 7 µM
no (0)

Confirm or reject: [ ] (μM) t60 min. Prodrug (Human) of `CCOC(=O)c1c(O)c(OCOP(=O)(O)O)c(C(=O)N(C)C)n1-c1ccc(OC)cc1` lies strictly below 7 µM
yes (1)

----------
ASSAY NAME: Conversion of prodrug derivatives to active inhibitors in mouse plasma
Format: in vitro ADME
TEST CONDITIONS: 37° C., 10 μM start, prodrug remaining, 120 min
Procedure: The samples were then analysed by LC-MS/MS to obtain the amount of active compound appearing and prodrug derivative remaining over time. The mouse plasma assay system is considered to be a good model for human behaviour. […] Prodrug derivatives were assessed in the mouse and human plasma stability assay at a concentration of 10 μM. […] (1) The active compound was quantified using a 6 point calibration curve prepared in deactivated mouse and human plasma. […]
MEASUREMENT NAME: [ ] (μM) t120 min. Prodrug
Put your answer as a value accompanied by its unit after it.

Memo: `CCOC(=O)c1c(O)c(OS(N)(=O)=O)c(C(=O)N(C)C)n1-c1ccc(OC)cc1` , reported [ ] (μM) t120 min. Prodrug: 9.90 µM

Memo: `CCOC(=O)c1c(OP(=O)(OCC)OCC)c(O)c(C(=O)N(C)C)n1-c1ccc(OC)cc1` , reported [ ] (μM) t120 min. Prodrug: 8.49 µM

Memo: `CCOC(=O)c1c(OC(=O)C(C)(C)COCCOCCOC)c(OC(=O)C(C)(C)COCCOCCOC)c(C(=O)N(C)C)n1-c1ccc(OC)cc1` , reported [ ] (μM) t120 min. Prodrug: 0.47 µM

Memo: `CCOC(=O)c1c(OC(=O)N2CCN(C)CC2)c(OC(=O)N2CCN(C)CC2)c(C(=O)N(C)C)n1-c1ccc(OC)cc1` , reported [ ] (μM) t120 min. Prodrug: 2.20 µM

Memo: `CCOC(=O)c1c(OP(=O)(OCC)OCC)c(OP(=O)(OCC)OCC)c(C(=O)N(C)C)n1-c1ccc(OC)cc1` , reported [ ] (μM) t120 min. Prodrug: 3.70 µM

----------
Kindly supply the reported IC50 values for the records listed here.
TESTED SYSTEM: UniProt:Q04IN8
ASSAY NAME: Inhibition of the haemolytic activity of pneumolysin (sheep erythrocytes)
Assay type: cell-based
TEST CONDITIONS: IC50, inhibition of pneumolysin-induced haemolysis of sheep erythrocytes; class symbols of Table 1

Reported UniProt:Q04IN8 IC50 for item `CCOC(=O)c1c(O)c(O)c(-c2ccccn2)n1-c1ccc(OC)cc1` was < 10 µM

Reported UniProt:Q04IN8 IC50 for item `CCOC(=O)c1c(O)c(O)c(C(=O)N(C)C)n1-c1ccc(O)cc1` was < 10 µM

Reported UniProt:Q04IN8 IC50 for item `COc1ccc(-n2c(C(=O)N(C)C)c(O)c(O)c2C(=O)N2CCOCC2)cc1` was < 10 µM

Reported UniProt:Q04IN8 IC50 for item `COc1ccc(-n2c(C(=O)N(C)C)c(OCc3ccccc3)c(OCc3ccccc3)c2C(=O)N2CCCCC2)cc1` was < 10 µM

Reported UniProt:Q04IN8 IC50 for item `CCOC(=O)c1c(O)c(O)c(C(=O)OCC)n1-c1ccc2c(c1)OCO2` was 20 to 60 µM

Reported UniProt:Q04IN8 IC50 for item `CCOC(=O)c1c(O)c(O)c(C(=O)OCC)n1-c1ccc(C(C)(C)C)cc1` was < 10 µM

----------
ASSAY NAME: Conversion of prodrug derivatives to active inhibitors in mouse plasma
Format: in vitro ADME
TEST CONDITIONS: 37° C., 10 μM start, prodrug remaining, 15 min
MEASUREMENT NAME: [ ] (μM) t15 min. Prodrug (µM)
Respond with the bare value in µM.

Memo: `CCOC(=O)c1c(OC(=O)C(C)(C)C)c(OC(=O)C(C)(C)C)c(C(=O)N(C)C)n1-c1ccc(OC)cc1` , reported [ ] (μM) t15 min. Prodrug: 3.02

Memo: `CCOC(=O)c1c(OC(C)=O)c(OC(C)=O)c(C(=O)N(C)C)n1-c1ccc(OC)cc1` , reported [ ] (μM) t15 min. Prodrug: 0

Memo: `CCOC(=O)c1c(O)c(OCOP(=O)(O)O)c(C(=O)N(C)C)n1-c1ccc(OC)cc1` , reported [ ] (μM) t15 min. Prodrug: 6.87

Memo: `CCOC(=O)c1c(OC(=O)CCOCCOC)c(OC(=O)CCOCCOC)c(C(=O)N(C)C)n1-c1ccc(OC)cc1` , reported [ ] (μM) t15 min. Prodrug: 0

Memo: `CCOC(=O)c1c(OC(=O)N2CCN(C)CC2)c(OC(=O)N2CCN(C)CC2)c(C(=O)N(C)C)n1-c1ccc(OC)cc1` , reported [ ] (μM) t15 min. Prodrug: 3.10

Memo: `CCOC(=O)c1c(OC(=O)C(C)C)c(OC(=O)C(C)C)c(C(=O)N(C)C)n1-c1ccc(OC)cc1` , reported [ ] (μM) t15 min. Prodrug: 0

Memo: `CCOC(=O)c1c(O)c(OC(=O)N(C)C)c(C(=O)N(C)C)n1-c1ccc(OC)cc1` , reported [ ] (μM) t15 min. Prodrug: 9.90

Memo: `CCOC(=O)c1c(OP(=O)(OCC)OCC)c(O)c(C(=O)N(C)C)n1-c1ccc(OC)cc1` , reported [ ] (μM) t15 min. Prodrug: 9.99

Memo: `CCOC(=O)c1c(O)c(OP(=O)(O)O)c(C(=O)N(C)C)n1-c1ccc(OC)cc1` , reported [ ] (μM) t15 min. Prodrug: 6.40

Memo: `CCOC(=O)c1c(OC(=O)C(C)(C)COCCOCCOP(=O)(O)O)c(OC(=O)C(C)(C)COCCOCCOP(=O)(O)O)c(C(=O)N(C)C)n1-c1ccc(OC)cc1` , reported [ ] (μM) t15 min. Prodrug: 5.92

Memo: `CCOC(=O)c1c(O)c(OS(N)(=O)=O)c(C(=O)N(C)C)n1-c1ccc(OC)cc1` , reported [ ] (μM) t15 min. Prodrug: 9.90

Memo: `CCOC(=O)c1c(OC(=O)C(C)(C)COCCOCCOC)c(OC(=O)C(C)(C)COCCOCCOC)c(C(=O)N(C)C)n1-c1ccc(OC)cc1` , reported [ ] (μM) t15 min. Prodrug: 4.74

Memo: `COc1ccc(-n2c(C(=O)N(C)C)c(OC(=O)C(C)C)c(OC(=O)C(C)C)c2C(=O)N(C)C)cc1` , reported [ ] (μM) t15 min. Prodrug: 0

Memo: `CCOC(=O)c1c(OP(=O)(OCC)OCC)c(OP(=O)(OCC)OCC)c(C(=O)N(C)C)n1-c1ccc(OC)cc1` , reported [ ] (μM) t15 min. Prodrug: 5.12

Memo: `CCOC(=O)c1c(OC(=O)C(C)C)c(OC(=O)C(C)C)c(C(=O)N(C)C)n1-c1ccc(OCCOCCOCCOC)cc1` , reported [ ] (μM) t15 min. Prodrug: 0

----------
Kindly supply the reported IC50 values for the records listed here.
TESTED SYSTEM: pneumolysin (Streptococcus pneumoniae serotype 2, UniProt Q04IN8)
Sequence (Q04IN8 whole entry): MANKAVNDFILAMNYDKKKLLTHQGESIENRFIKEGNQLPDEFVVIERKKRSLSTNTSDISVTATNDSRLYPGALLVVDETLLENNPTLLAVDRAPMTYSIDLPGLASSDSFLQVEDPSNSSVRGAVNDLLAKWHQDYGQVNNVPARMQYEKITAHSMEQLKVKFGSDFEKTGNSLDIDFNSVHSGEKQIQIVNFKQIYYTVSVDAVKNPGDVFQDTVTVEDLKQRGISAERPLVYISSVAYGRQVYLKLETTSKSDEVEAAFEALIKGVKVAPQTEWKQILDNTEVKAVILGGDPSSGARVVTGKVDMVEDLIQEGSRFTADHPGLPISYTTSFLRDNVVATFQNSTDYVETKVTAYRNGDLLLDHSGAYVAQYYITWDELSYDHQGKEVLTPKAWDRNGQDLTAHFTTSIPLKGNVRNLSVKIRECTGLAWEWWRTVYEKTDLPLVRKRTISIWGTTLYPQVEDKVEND
ASSAY NAME: Inhibition of the haemolytic activity of pneumolysin (sheep erythrocytes)
Format: cell-based
TEST CONDITIONS: IC50, inhibition of pneumolysin-induced haemolysis of sheep erythrocytes; class symbols of Table 1

Memo: `COc1ccccc1-n1c(C(=O)N(C)C)c(O)c(O)c1C(=O)N(C)C` , reported IC50: < 10 µM

Memo: `CCOc1ccc(-n2c(C(=O)N(CC)CC)c(O)c(O)c2C(=O)N(CC)CC)cc1` , reported IC50: < 10 µM

Memo: `CCCCN(CCCC)C(=O)c1c(O)c(O)c(C(=O)OCC)n1-c1ccc(OC)cc1` , reported IC50: < 10 µM

Memo: `COc1ccc(-n2c(C(=O)N3CCOCC3)c(O)c(O)c2C(=O)N2CCOCC2)cc1` , reported IC50: < 10 µM

Memo: `CCOC(=O)c1c(OCc2ccccc2)c(OCc2ccccc2)c(C(N)=O)n1-c1ccc(OC)cc1` , reported IC50: < 10 µM

Memo: `COc1ccccc1-n1c(C(=O)N2CCOCC2)c(OCc2ccccc2)c(OCc2ccccc2)c1C(=O)N1CCOCC1` , reported IC50: 20 to 60 µM

Memo: `CCOC(=O)c1c(O)c(O)c(C(=O)OCC)n1-c1ccc(OC)c(OC)c1` , reported IC50: < 10 µM

Memo: `O=C(c1c(O)c(O)c(C(=O)N2CCCCC2)n1-c1ccc(F)cc1)N1CCCCC1` , reported IC50: < 10 µM

Memo: `CCOC(=O)c1c(OC(=O)C(C)(C)COCCOC)c(OC(=O)C(C)(C)COCCOC)c(C(=O)N(C)C)n1-c1ccc(OC)cc1` , reported IC50: 10 to 20 µM

Memo: `CCOC(=O)c1c(O)c(O)c(C(=O)OCC)n1-c1cc(F)c(OCC)c(F)c1` , reported IC50: < 10 µM

Memo: `COc1ccc(-n2c(C(=O)OC(C)C)c(OC(=O)C(C)(C)COCCOCCOP(=O)(O)O)c(OC(=O)C(C)(C)COCCOCCOP(=O)(O)O)c2C(=O)N(C)C)cc1` , reported IC50: < 10 µM

Memo: `COc1ccc(-n2c(C(=O)OCC(C)(C)C)c(O)c(O)c2C(=O)N(C)C)cc1` , reported IC50: < 10 µM

Memo: `CCOc1ccc(-n2c(C(N)=O)c(O)c(O)c2C(N)=O)cc1` , reported IC50: 20 to 60 µM

Memo: `CCOC(=O)c1c(O)c(O)c(C(=O)N(C)C)n1-c1ccc(OCCCS(C)(=O)=O)cc1` , reported IC50: < 10 µM

Memo: `COc1ccc(-n2c(C(=O)OC3CCCC3)c(O)c(O)c2C(=O)N(C)C)cc1` , reported IC50: < 10 µM

Memo: `CN(C)C(=O)c1c(O)c(O)c(C(=O)N(C)C)n1-c1ccc(F)cc1` , reported IC50: < 10 µM

Memo: `CCOC(=O)c1c(O)c(O)c(C(=O)OCC)n1-c1ccccc1OC` , reported IC50: 20 to 60 µM

Memo: `CN(C)C(=O)c1ccc(-n2c(C(=O)N(C)C)c(O)c(O)c2C(=O)N(C)C)cc1` , reported IC50: < 10 µM

Memo: `CCOC(=O)c1c(O)c(O)c(C(=O)OCC)n1-c1ccc(OCCOCCOCCOC)cc1` , reported IC50: < 10 µM

Memo: `CCOC(=O)c1c(O)c(O)c(C(=O)OCC)n1-c1ccc(CC)cc1` , reported IC50: < 10 µM

Memo: `CCOC(=O)c1c(O)c(OCC(=O)OC(C)(C)C)c(C(=O)OCC)n1-c1ccc(OC)cc1` , reported IC50: 10 to 20 µM

Memo: `CCOC(=O)c1c(O)c(O)c(C(=O)NC)n1-c1ccc(OC)cc1` , reported IC50: < 10 µM

Memo: `COc1ccc(-n2c(C(C)=O)c(O)c(O)c2C(=O)N(C)C)cc1` , reported IC50: < 10 µM

Memo: `CCOC(=O)c1c(O)c(OCC(N)=O)c(C(=O)OCC)n1-c1ccc(OC)cc1` , reported IC50: 20 to 60 µM

Memo: `CCOC(=O)c1c(OCc2ccccc2)c(OCc2ccccc2)c(-c2nnc(CC)o2)n1-c1ccc(OC)cc1` , reported IC50: 10 to 20 µM

Memo: `COc1ccc(-n2c(C(=O)OC(C)(C)C)c(O)c(O)c2C(=O)N(C)C)cc1` , reported IC50: < 10 µM

Memo: `CCOC(=O)c1c(O)c(O)c(C(=O)N(C)C)n1-c1ccc(OCCOCCOCCOC)cc1` , reported IC50: < 10 µM

Memo: `CCOC(=O)c1c(O)c(O)c(C(=O)OCC)n1-c1ccc(OC)cc1OC` , reported IC50: < 10 µM

Memo: `CC(C)(C)OC(=O)N1CCN(C(=O)c2c(O)c(O)c(C(=O)N3CCN(C(=O)OC(C)(C)C)CC3)n2-c2ccc(F)cc2)CC1` , reported IC50: < 10 µM

Memo: `CCOC(=O)c1c(O)c(O)c(C(=O)OCC)n1-c1ccc(OC)c(I)c1` , reported IC50: < 10 µM

Memo: `COc1ccc(-n2c(C(N)=O)c(O)c(O)c2C(N)=O)cc1` , reported IC50: < 10 µM

Memo: `COc1ccc(-n2c(C(N)=O)c(OCc3ccccc3)c(OCc3ccccc3)c2C(N)=O)cc1` , reported IC50: 20 to 60 µM

Memo: `COCCOCCOCCOCCOCCOCCOCCOCC(C)(C)C(=O)Oc1c(OC(=O)C(C)(C)COCCOCCOCCOCCOCCOCCOCCOC)c(C(=O)N(C)C)n(-c2ccc(OC)cc2)c1C(=O)N(C)C` , reported IC50: 10 to 20 µM
